From: ChEMBL document CHEMBL1681696

Property: bioavailability; scope: individual compounds
PROTOCOL DESCRIPTION: Oral bioavailability in mouse at 2 mg/kg
Type: ADME, organism-based
CONDITION INFO: in vivo
Hi! Could you send only the number? It should be in %, unit omitted.

Given the entry CC(C)(CCCC(=O)N1CCC[C@H]1c1nc2cc(Cl)c(Cl)cc2[nH]1)N1CCC(c2nc(-c3ccccn3)no2)CC1 , report its measured bioavailability.
3

Also need O=C(CCN1CCC(c2nc(-c3ccncc3)no2)CC1)N1CCC[C@H]1c1nc2cc(Cl)c(Cl)cc2[nH]1 , thanks.
8

Also need CS(=O)(=O)c1ccc(-c2noc(C3CCN(CCC(=O)N4CCC[C@H]4c4nc5cc(Cl)c(Cl)cc5[nH]4)CC3)n2)cc1 , thanks.
14

Also need Cn1nc(C2CCN(CCC(=O)N3CCC[C@H]3c3nc4cc(Cl)c(Cl)cc4[nH]3)CC2)cc1-c1ccncc1 , thanks.
4

Also need CS(=O)(=O)c1ccc(-c2noc(C3CCN(CCC(=O)N4CCC[C@H]4c4nc5cc(Cl)c(Cl)cc5[nH]4)C(=O)C3)n2)cc1 (stereo not given in full) , thanks.
3

---

Property: IC50; scope: individual molecules
TARGET DESC: Lysosomal Pro-X carboxypeptidase (Mus musculus, UniProt Q7TMR0)
Sequence (Q7TMR0 whole entry): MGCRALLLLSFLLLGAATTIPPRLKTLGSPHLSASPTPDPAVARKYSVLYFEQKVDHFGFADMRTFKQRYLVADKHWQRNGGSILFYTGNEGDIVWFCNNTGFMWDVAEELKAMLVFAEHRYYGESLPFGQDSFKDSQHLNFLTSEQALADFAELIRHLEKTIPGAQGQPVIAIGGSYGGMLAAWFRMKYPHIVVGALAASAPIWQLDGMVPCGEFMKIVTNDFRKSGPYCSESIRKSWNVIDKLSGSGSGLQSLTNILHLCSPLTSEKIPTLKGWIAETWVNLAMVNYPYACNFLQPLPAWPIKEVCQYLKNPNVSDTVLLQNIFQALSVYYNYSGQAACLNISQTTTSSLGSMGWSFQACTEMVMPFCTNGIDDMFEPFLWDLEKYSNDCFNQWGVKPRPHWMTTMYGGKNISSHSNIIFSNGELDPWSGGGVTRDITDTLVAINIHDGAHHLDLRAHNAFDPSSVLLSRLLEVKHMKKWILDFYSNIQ
PROTOCOL DESCRIPTION: Inhibition of PrCP in mouse plasma assessed as angiotensin 3 cleavage
Type: cell-free

Some solved entries appear below for comparison.
MOLECULE: CS(=O)(=O)c1ccc(-c2noc(C3CCN(CCC(=O)N4CCC[C@H]4c4nc5cc(Cl)c(Cl)cc5[nH]4)C(=O)C3)n2)cc1 (stereo partly specified)
OBSERVABLE: IC50
OBSERVED VALUE: 0.425 µM

MOLECULE: O=C(CCN1CCC(c2cc(-c3ccncc3)[nH]n2)CC1)N1CCC[C@H]1c1nc2cc(Cl)c(Cl)cc2[nH]1
OBSERVABLE: IC50
OBSERVED VALUE: 0.485 µM

MOLECULE: O=C(CCN1CCN(c2ccccc2)CC1)N1CCC[C@H]1c1nc2cc(Cl)c(Cl)cc2[nH]1
OBSERVABLE: IC50
OBSERVED VALUE: > 10 µM

MOLECULE: O=C(O)c1ccc(-c2noc(C3CCN(CCC(=O)N4CCC[C@H]4c4nc5cc(Cl)c(Cl)cc5[nH]4)CC3)n2)cc1
OBSERVABLE: IC50
OBSERVED VALUE: 0.241 µM

MOLECULE: O=C(CCN1CCC(c2nc(-c3ncccn3)no2)CC1)N1CCC[C@H]1c1nc2cc(Cl)c(Cl)cc2[nH]1
OBSERVABLE: IC50
OBSERVED VALUE: 0.745 µM

Given the entry O=C(CCN1CCC(c2ccncc2)CC1)N1CCC[C@H]1c1nc2cc(Cl)c(Cl)cc2[nH]1 , report its measured IC50.
0.43 µM

---

TARGET DESC: Lysosomal Pro-X carboxypeptidase (Mus musculus)
Sequence (Q7TMR0 whole entry): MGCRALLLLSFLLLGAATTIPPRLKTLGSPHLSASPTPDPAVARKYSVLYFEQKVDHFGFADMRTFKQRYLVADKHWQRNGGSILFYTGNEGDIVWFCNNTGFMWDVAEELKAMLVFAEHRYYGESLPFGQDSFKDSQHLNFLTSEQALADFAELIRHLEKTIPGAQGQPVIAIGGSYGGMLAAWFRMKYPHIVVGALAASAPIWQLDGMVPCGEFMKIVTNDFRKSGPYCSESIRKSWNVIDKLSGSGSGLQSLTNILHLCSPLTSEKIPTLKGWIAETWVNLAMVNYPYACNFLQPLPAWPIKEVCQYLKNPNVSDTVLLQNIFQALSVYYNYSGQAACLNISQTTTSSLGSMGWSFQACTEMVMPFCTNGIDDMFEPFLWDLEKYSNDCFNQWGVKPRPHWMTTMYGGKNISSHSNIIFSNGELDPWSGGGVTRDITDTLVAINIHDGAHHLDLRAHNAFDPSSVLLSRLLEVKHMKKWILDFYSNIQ
PROTOCOL DESCRIPTION: Inhibition of PrCP in mouse plasma assessed as angiotensin 3 cleavage
Assay type: cell-free
OBSERVABLE: IC50 (µM)
Hi! Could you send only the number? It should be in µM, unit omitted.

STRUCTURE NOTATION: Cn1nc(C2CCN(CCC(=O)N3CCC[C@H]3c3nc4cc(Cl)c(Cl)cc4[nH]3)CC2)cc1-c1cccnc1
OBSERVED VALUE: 0.039
--
STRUCTURE NOTATION: O=C(CCN1CCC(c2cnccn2)CC1)N1CCC[C@H]1c1nc2cc(Cl)c(Cl)cc2[nH]1
OBSERVED VALUE: 8
--
STRUCTURE NOTATION: O=C(CCN1CCC(c2nc(-c3ccccn3)no2)CC1)N1CCC[C@H]1c1nc2cc(Cl)c(Cl)cc2[nH]1
OBSERVED VALUE: 0.173

Let's switch to this compound now.
Given the entry O=C(CCN1CCC(c2cc[nH]n2)CC1)N1CCC[C@H]1c1nc2cc(Cl)c(Cl)cc2[nH]1 , report its measured IC50.
0.29

---

PROTOCOL DESCRIPTION: Clearance in mouse at 1 mg/kg, iv and 2 mg/kg, po
Format: ADME, organism-based
CONDITION INFO: in vivo
Sorting guide: entries reporting clearance beneath 50 mL/min/kg go in the yes (1) pile, the rest go in the no (0) pile.

Past entries and their recorded results:
COMPOUND: Cn1nc(C2CCN(CCC(=O)N3CCC[C@H]3c3nc4cc(Cl)c(Cl)cc4[nH]3)CC2)cc1-c1ccncc1
QUALITATIVE LABEL: no (0)
--
COMPOUND: CS(=O)(=O)c1ccc(-c2noc(C3CCN(CCC(=O)N4CCC[C@H]4c4nc5cc(Cl)c(Cl)cc5[nH]4)CC3)n2)cc1
QUALITATIVE LABEL: no (0)
--
COMPOUND: CC(C)(CCCC(=O)N1CCC[C@H]1c1nc2cc(Cl)c(Cl)cc2[nH]1)N1CCC(c2nc(-c3ccccn3)no2)CC1
QUALITATIVE LABEL: no (0)
--
COMPOUND: CS(=O)(=O)c1ccc(-c2noc(C3CCN(CCC(=O)N4CCC[C@H]4c4nc5cc(Cl)c(Cl)cc5[nH]4)C(=O)C3)n2)cc1 (stereo not given in full)
QUALITATIVE LABEL: no (0)

# ---- query compound ----
Determine if O=C(CCN1CCC(c2nc(-c3ccncc3)no2)CC1)N1CCC[C@H]1c1nc2cc(Cl)c(Cl)cc2[nH]1 shows clearance strictly lower than 50 mL/min/kg.
yes (1)

---

PROTOCOL DESCRIPTION: Ratio of drug level in brain to plasma in wild type CF1 mouse at 0.5 mg/kg after 4 hrs
Assay type: ADME, organism-based
Design: dose 0.5 mg/kg
CONDITION INFO: read-out: BPR
OBSERVABLE: Kp at 4 h
Reply with the value as a number alone.

Given the entry Cn1nc(C2CCN(CCC(=O)N3CCC[C@H]3c3nc4cc(Cl)c(Cl)cc4[nH]3)CC2)cc1-c1ccncc1 , report its measured Kp at 4 h.
0.88

---

PROTOCOL DESCRIPTION: Drug level in mdr1a deficient mouse plasma at 0.5 mg/kg after 0.5 hrs
Type: ADME, organism-based
Set-up: dose 0.5 mg/kg
CONDITION INFO: read-out: Drug uptake
OBSERVABLE: concentration at 0.5 h (nM)
Hi! Could you send only the number? It should be in nM, unit omitted.

Given the entry Cn1nc(C2CCN(CCC(=O)N3CCC[C@H]3c3nc4cc(Cl)c(Cl)cc4[nH]3)CC2)cc1-c1ccncc1 , report its measured concentration at 0.5 h.
51

---

PROTOCOL DESCRIPTION: Drug level in mdr1a deficient mouse brain at 0.5 mg/kg after 4 hrs
Format: ADME, organism-based
Parameters: dose 0.5 mg/kg
CONDITION INFO: read-out: Drug uptake
OBSERVABLE: concentration at 4 h (nM)
Hi! Could you send only the number? It should be in nM, unit omitted.

Given the entry Cn1nc(C2CCN(CCC(=O)N3CCC[C@H]3c3nc4cc(Cl)c(Cl)cc4[nH]3)CC2)cc1-c1ccncc1 , report its measured concentration at 4 h.
54
